Values compiled from ChEMBL document CHEMBL4028801.

Overview of recorded pIC50 for various compounds
# system-tested: ATP-binding cassette sub-family C member 4 (Homo sapiens, UniProt O15439)
# Sequence (O15439 whole entry): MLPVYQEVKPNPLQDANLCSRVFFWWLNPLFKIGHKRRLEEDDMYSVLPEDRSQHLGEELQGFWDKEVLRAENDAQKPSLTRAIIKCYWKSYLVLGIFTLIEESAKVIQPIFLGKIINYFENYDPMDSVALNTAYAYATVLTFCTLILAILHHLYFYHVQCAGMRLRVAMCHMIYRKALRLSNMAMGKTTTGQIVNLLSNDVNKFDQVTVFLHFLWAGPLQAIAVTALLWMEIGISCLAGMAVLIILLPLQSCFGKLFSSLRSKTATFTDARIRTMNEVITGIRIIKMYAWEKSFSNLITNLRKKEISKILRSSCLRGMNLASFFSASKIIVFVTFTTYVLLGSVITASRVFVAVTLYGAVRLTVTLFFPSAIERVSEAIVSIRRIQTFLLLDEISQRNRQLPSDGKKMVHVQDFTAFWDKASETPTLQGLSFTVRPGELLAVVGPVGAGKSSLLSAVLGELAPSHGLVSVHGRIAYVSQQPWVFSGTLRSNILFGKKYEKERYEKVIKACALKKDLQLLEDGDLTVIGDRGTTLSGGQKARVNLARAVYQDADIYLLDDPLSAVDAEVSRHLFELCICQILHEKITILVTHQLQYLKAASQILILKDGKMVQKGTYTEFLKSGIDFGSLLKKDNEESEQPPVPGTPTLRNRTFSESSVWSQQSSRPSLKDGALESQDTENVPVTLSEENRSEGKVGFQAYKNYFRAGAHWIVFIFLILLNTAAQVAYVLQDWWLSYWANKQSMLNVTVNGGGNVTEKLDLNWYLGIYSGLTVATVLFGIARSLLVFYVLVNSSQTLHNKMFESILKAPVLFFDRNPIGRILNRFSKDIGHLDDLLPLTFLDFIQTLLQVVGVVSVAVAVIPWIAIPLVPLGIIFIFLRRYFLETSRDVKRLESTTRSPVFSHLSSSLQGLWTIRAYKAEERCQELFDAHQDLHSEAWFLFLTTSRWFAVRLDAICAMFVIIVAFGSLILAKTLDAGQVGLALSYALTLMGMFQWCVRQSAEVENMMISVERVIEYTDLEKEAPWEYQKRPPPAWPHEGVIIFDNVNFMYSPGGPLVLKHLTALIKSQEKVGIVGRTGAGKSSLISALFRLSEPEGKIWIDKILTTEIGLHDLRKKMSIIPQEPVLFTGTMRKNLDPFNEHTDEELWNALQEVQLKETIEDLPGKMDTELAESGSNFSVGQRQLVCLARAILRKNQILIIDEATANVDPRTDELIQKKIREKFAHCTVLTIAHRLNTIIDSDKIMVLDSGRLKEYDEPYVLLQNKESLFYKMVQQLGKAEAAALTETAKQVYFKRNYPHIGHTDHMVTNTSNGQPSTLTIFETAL
# protocol: Inhibition of human MRP4 overexpressed in Sf9 cell membrane vesicles assessed as uptake of [3H]-estradiol-17beta-D-glucuronide in presence of ATP and GSH measured after 20 mins by membrane vesicle transport assay
pIC50: −log10 of the molar value.

The following compounds have reported results that may help.
(Q) Which pIC50 value is on record for CC/C(=C(\c1ccccc1)c1ccc(OCCN(C)C)cc1)c1ccccc1 [TAMOXIFEN] ?
(A) < 3.88

(Q) Can you handle CC1=C(/C=C/C(C)=C/C=C/C(C)=C/C(=O)O)C(C)(C)CCC1 [TRETINOIN] next?
(A) < 3.88

Continuing:
(Q) Recorded pIC50 of CN1CCOC(c2ccccc2)c2ccccc2C1 (stereo unspecified) [NEFOPAM] , please.
(A) < 3.88

(Q) Same thing, different compound: COC(=O)C1=C(C)NC(C)=C(C(=O)OCC(C)C)C1c1ccccc1[N+](=O)[O-] (stereo unspecified) [NISOLDIPINE]
(A) 4.78

(Q) Proceed to OC(CCN1CCCC1)(c1ccccc1)C1CCCCC1 (stereo unspecified) [PROCYCLIDINE]
(A) < 3.88

(Q) Next entry: Oc1c(I)cc(Cl)c2cccnc12 [CLIOQUINOL]
(A) < 3.88

(Q) Here is the next compound: Cc1c(OCC(F)(F)F)ccnc1C[S@@+]([O-])c1nc2ccccc2[nH]1 [DEXLANSOPRAZOLE]
(A) < 3.88
